IC50 reference
Molecular target: HIV-1 PR (Human immunodeficiency virus type 1 group M subtype B)
Experiment: HIV-protease inhibitory activity assay (FRET peptide substrate)
Details: Test Example 1
Experimental Readout: IC50 (nM)

| Molecule | Target Desc | Value Observed |
| --- | --- | --- |
| COc1ccc(S(=O)(=O)N(CC(C)C)CC(O)C(Cc2ccc(NCc3cc(N4CC(C)(C)C4=O)ccc3-c3sc4c(c3C(=O)O)CC(C)(C)CC4)cc2)NC(=O)OC2COC3(C)OCCC23)cc1 (stereo not shown) [Compound I-728] | HIV-1 PR (Human immunodeficiency virus type 1 group M subtype B) | 2.96 |
| CC(C)CN(CC(O)C(Cc1ccc(CCc2sc3c(c2C(=O)O)CC(C)(C)CC3)cc1)NC(=O)OC1COC2OCCC12)S(=O)(=O)c1ccc2ncsc2c1 (stereo not shown) [Compound I-831] | HIV-1 PR (Human immunodeficiency virus type 1 group M subtype B) | 1.49 |
| COc1ccc(S(=O)(=O)N(CC(C)C)CC(O)C(Cc2ccc(OCC3CCN(c4cccc(-c5sc6c(c5C(=O)O)CC(C)(C)CC6)c4)C3)cc2)NC(=O)OC2COC3(C)OCCC23)cc1 (stereo not shown) [Compound I-896] | HIV-1 PR (Human immunodeficiency virus type 1 group M subtype B) | 16.7 |
| COc1ccc(S(=O)(=O)N(CC(C)C)CC(O)C(Cc2ccc(OCc3ccccc3-c3sc4c(c3C(=O)O)CC(C)(C)CC4)cc2)NC(=O)OC2CC3OCC(O)C3C2)cc1 (stereo not shown) [Compound I-29] | HIV-1 PR (Human immunodeficiency virus type 1 group M subtype B) | 1.41 |
| COc1ccc(S(=O)(=O)N(CC(C)C)CC(O)C(Cc2ccc(NC(=O)c3sc4c(c3C(=O)O)CC(C)(C)CC4)cc2)NC(=O)OC2COC3(C)OCCC23)cc1 (stereo not shown) [Compound I-208] | HIV-1 PR (Human immunodeficiency virus type 1 group M subtype B) | 1.86 |
| COc1ccc(S(=O)(=O)N(CC(C)C)CC(O)C(Cc2ccc(NCc3cccc(-c4sc5c(c4C(=O)O)CC(C)(C)CC5)n3)cc2)NC(=O)OC2COC3(C)OCCC23)cc1 (stereo not shown) [Compound I-283] | HIV-1 PR (Human immunodeficiency virus type 1 group M subtype B) | 2.28 |
| COc1ccc(S(=O)(=O)N(CC(C)C)CC(O)C(Cc2ccc(NC3Cc4cccc(-c5sc6c(c5C(=O)O)CC(C)(C)CC6)c4C3)cc2)NC(=O)OC2COC3(C)OCCC23)cc1 (stereo not shown) [Compound I-242] | HIV-1 PR (Human immunodeficiency virus type 1 group M subtype B) | 3.11 |
| COc1ccc(S(=O)(=O)N(CC(C)C)CC(O)C(Cc2ccc(N(Cc3ccccc3-c3sc4c(c3C(=O)O)CC(C)(C)CC4)CC3CCCCC3)cc2)NC(=O)OC2COC3(C)OCCC23)cc1 (stereo not shown) [Compound I-42] | HIV-1 PR (Human immunodeficiency virus type 1 group M subtype B) | 23.4 |
| COc1ccc(S(=O)(=O)N(CC(C)C)CC(O)C(Cc2ccc(OCc3ccccc3-c3ccc4c(c3)C(=O)C(c3ccc(F)cc3)C4=O)cc2)NC(=O)OC2COC3(C)OCCC23)cc1 (stereo not shown) [Compound I-70] | HIV-1 PR (Human immunodeficiency virus type 1 group M subtype B) | 1.06 |
| Cc1cc(Oc2ccc(CC(NC(=O)OC3COC4(C)OCCC34)C(O)CN(CC(C)C)S(=O)(=O)c3ccc4ncsc4c3)cc2)ccc1-c1sc2c(c1C(=O)O)CC(C)(C)CC2 (stereo not shown) [Compound I-138] | HIV-1 PR (Human immunodeficiency virus type 1 group M subtype B) | 2.66 |

* * *

Target: HIV-1 PR (Human immunodeficiency virus type 1 group M subtype B, UniProt P04585)
Experiment: HIV-protease inhibitory activity assay (FRET peptide substrate)
Conditions: Test Example 1
For each record, check the reported IC50: if it is below 2 nM write condition met, else write condition not met.

| Compound | Group Label |
| --- | --- |
| COc1ccc(S(=O)(=O)N(CC(C)C)CC(O)C(Cc2ccc(N3Cc4ccc(-c5sc6c(c5C(=O)O)CC(C)(C)CC6)cc4C3)cc2)NC(=O)OC2COC3(C)OCCC23)cc1 (stereo not shown) | condition not met |
| COc1ccc(S(=O)(=O)N(CC(C)C)CC(O)C(Cc2ccc(N3CC(Oc4ccc(-c5sc6c(c5C(=O)O)CC(C)(C)CC6)cc4)C3)cc2)NC(=O)OC2COC3(C)OCCC23)cc1 (stereo not shown) | condition not met |
| CCN(C(=O)Nc1ccccc1-c1sc2c(c1C(=O)O)CC(C)(C)CC2)c1ccc(CC(NC(=O)OC2COC3(C)OCCC23)C(O)CN(CC(C)C)S(=O)(=O)c2ccc(OC)cc2)cc1 (stereo not shown) | condition not met |
| COc1ccc(S(=O)(=O)N(CC(C)C)CC(O)C(Cc2ccc(NCc3cc(-c4sc5c(c4C(=O)O)CC(C)(C)CC5)co3)cc2)NC(=O)OC2COC3(C)OCCC23)cc1 (stereo not shown) | condition not met |
| COc1ccc(S(=O)(=O)N(CC(C)C)CC(O)C(Cc2ccc(N(C)C(=O)Nc3sc4c(c3C(=O)O)CC(C)(C)CC4)cc2)NC(=O)OC2COC3(C)OCCC23)cc1 (stereo not shown) | condition not met |
| COc1ccc(S(=O)(=O)N(CC2CCCC2)CC(O)C(Cc2ccc(NCc3ccccc3C(=O)Nc3sc4c(c3C(=O)O)CC(C)(C)CC4)cc2)NC(=O)OC2COC3OCCC23)cc1 (stereo not shown) | condition not met |
| COc1ccc(S(=O)(=O)N(CC(C)C)CC(O)C(Cc2ccc(NCc3nc(N4CCCC4)sc3-c3sc4c(c3C(=O)O)CC(C)(C)CC4)cc2)NC(=O)OC2COC3(C)OCCC23)cc1 (stereo not shown) | condition met |
| COc1ccc(S(=O)(=O)N(CC(C)C)CC(O)C(Cc2ccc(NCc3cc(N(C)C)ccc3-c3sc4c(c3C(=O)O)CC(C)(C)CC4)cc2)NC(=O)OC2COC3(C)OCCC23)cc1 (stereo not shown) | condition not met |
| COc1ccc(S(=O)(=O)N(CC(C)C)CC(O)C(Cc2ccc(COc3ccc(-c4ccc(F)cc4F)cc3C(=O)O)cc2)NC(=O)OC2COC3(C)OCCC23)cc1 (stereo not shown) | condition met |
| COc1ccc(S(=O)(=O)N(CC(C)C)CC(O)C(Cc2ccc(N(C)Cc3cc(C)ccc3C(=O)Nc3sc4c(c3C(=O)O)CC(C)(C)CC4)cc2)NC(=O)OC2COC3(C)OCCC23)cc1 (stereo not shown) | condition not met |

* * *

Molecular target: HIV-1 PR (Human immunodeficiency virus type 1 group M subtype B, UniProt P04585)
Assay: HIV-protease inhibitory activity assay (FRET peptide substrate)
Conditions: Test Example 1
pIC50: −log10 of the molar value.

| Compound | pIC50 |
| --- | --- |
| COc1ccc(S(=O)(=O)N(CC(C)C)CC(O)C(Cc2ccc(-c3ccc(Cn4nc5c(c4C(=O)O)CC(C)(C)CC5)cc3)cc2)NC(=O)OC2COC3(C)OCCC23)cc1 (centres unmarked) | 8.71 |
| COc1ccc(S(=O)(=O)N(CC(C)C)CC(O)C(Cc2ccc(OCC3CCCCC3Nc3ccc(C#N)cc3-c3sc4c(c3C(=O)O)CC(C)(C)CC4)cc2)NC(=O)OC2COC3(C)OCCC23)cc1 (centres unmarked) | 7.96 |
| COc1ccc(S(=O)(=O)N(CC(C)C)CC(O)C(Cc2ccc(NCc3cccc(C(F)(F)F)c3-c3sc4c(c3C(=O)O)CC(C)(C)CC4)cc2)NC(=O)OC2COC3(C)OCCC23)cc1 (centres unmarked) | 8.64 |
| COc1ccc(S(=O)(=O)N(CC2CCC2)CC(O)C(Cc2ccc(NCc3ccccc3C(=O)Nc3sc4c(c3C(=O)O)CC(C)(C)CC4)cc2)NC(=O)OC2COC3(C)OCCC23O)cc1 (centres unmarked) | 8.23 |
| COc1ccc(S(=O)(=O)N(CC(C)C)CC(O)C(Cc2ccc(N(C)Cc3cc(-c4ccc5ccccc5c4)ccc3-c3sc4c(c3C(=O)O)CC(C)(C)CC4)cc2)NC(=O)OC2COC3(C)OCCC23)cc1 (centres unmarked) | 7.58 |

* * *

Biological target: HIV-1 PR (Human immunodeficiency virus type 1 group M subtype B)
Assay: HIV-protease inhibitory activity assay (FRET peptide substrate)
Conditions: Test Example 1
For each record, check the reported IC50: if it is below 2 nM write 1 (yes), else write 0 (no).

| Compound | Group Label |
| --- | --- |
| COc1ccc(S(=O)(=O)N(CC2CCC(=O)N2)CC(O)C(Cc2ccc(OCc3ccccc3-c3sc4c(c3C(=O)O)CC(C)(C)CC4)cc2)NC(=O)OC2COC3(C)OCCC23)cc1 (stereo not shown) [Compound I-148] | 1 (yes) |
| COc1ccc(S(=O)(=O)N(CC(C)C)CC(O)C(Cc2ccc(OCc3ccccc3-n3nc4c(c3C(=O)O)CC(c3ccccc3)CC4)cc2)NC(=O)OC2COC3(C)OCCC23)cc1 (stereo not shown) [Compound I-144] | 1 (yes) |
| COc1ccc(S(=O)(=O)N(CC(C)C)CC(O)C(Cc2ccc(OCc3ccccc3-c3ccc4c(O)c(-c5ccc(Oc6ccccc6)cc5)c(=O)n(C)c4c3)cc2)NC(=O)OC2COC3OCCC23)cc1 (stereo not shown) [Compound I-822] | 0 (no) |
| COc1ccc(S(=O)(=O)N(CC(C)C)CC(O)C(Cc2ccc(NCc3cc(C(=O)O)c(C)o3)cc2)NC(=O)OC2COC3(C)OCCC23)cc1 (stereo not shown) [Compound I-317] | 1 (yes) |
| COc1ccc(S(=O)(=O)N(CC(C)C)CC(O)C(Cc2ccc(N3CCC(Oc4ccc(-c5sc6c(c5C(=O)O)CC(C)(C)CC6)cc4)C3)cc2)NC(=O)OC2COC3(C)OCCC23)cc1 (stereo not shown) [Compound I-350] | 0 (no) |
| COc1ccc(S(=O)(=O)N(CC(C)C)CC(O)C(Cc2ccc(NCc3cc(-c4sc5c(c4C(=O)O)CC(C)(C)CC5)ccc3OC)cc2)NC(=O)OC2COC3(C)OCCC23)cc1 (stereo not shown) [Compound I-281] | 0 (no) |
| COc1ccc(S(=O)(=O)N(CC(O)C(Cc2ccc(NCc3ccccc3-c3sc4c(c3C(=O)O)CC(C)(C)CC4)cc2)NC(=O)OC2COC3(C)OCCC23)CC(C)(C)C)cc1 (stereo not shown) [Compound I-473] | 0 (no) |
| COc1ccc(S(=O)(=O)N(CC(C)C)CC(O)C(Cc2ccc(OCc3ccccc3-c3ccc4c(C(=O)O)c(-c5ccc(Cl)cc5C)sc4c3)cc2)NC(=O)OC2COC3(C)OCCC23)cc1 (stereo not shown) [Compound I-73] | 0 (no) |
| COc1ccc(S(=O)(=O)N(CC(C)C)CC(O)C(Cc2ccc(N3CCC(c4ccccc4-c4sc5c(c4C(=O)O)CC(C)(C)CC5)C3)cc2)NC(=O)OC2COC3(C)OCCC23)cc1 (stereo not shown) [Compound I-523] | 0 (no) |
